Measured IC50 values are reported for all entries that follow.
molecular target: recombinant BRD4 BD2 (Homo sapiens); construct: recombinant BRD4 BD1 and BRD4 BD2 proteins; experiment: Competitive fluorescence-polarization (FP) binding assay, BRD4 BD2; conditions: protein 6 nM, probe 1.5 nM

Note down IC50 recorded for CCOC(=O)CN1Cc2c(sc(C)c2Cc2ccccc2)-n2c(C)nnc2[C@@H]1C
1100 nM

Note down IC50 recorded for Cc1sc2c(c1Cc1ccc(F)cc1)COCc1nnc(C)n1-2
213 nM

Note down IC50 recorded for Cc1nnc2n1-c1cccc(Cc3ccccc3)c1COC2
367 nM

Note down IC50 recorded for Cc1nnc2n1-c1cccc(Br)c1COC2
> 10000 nM

Note down IC50 recorded for Cc1nnc2n1-c1cccc(Nc3ccccc3)c1COC2
1460 nM

Note down IC50 recorded for CCNC(=O)N1Cc2c(sc(C)c2Cc2ccccc2)-n2c(C)nnc2[C@@H]1C
5920 nM

###

Measured log10 IC50 values are reported for all entries that follow.
molecular target: recombinant BRD4 BD1 (Homo sapiens); construct: recombinant BRD4 BD1 and BRD4 BD2 proteins; assay: Competitive fluorescence-polarization (FP) binding assay, BRD4 BD1; conditions: FP competitive binding; protein 10 nM, probe 1.5 nM; read-out: IC50 (nM) BRD4 BD1
# log10 transformed; quantity=IC50; unit=nM

Completed entries (count: 7):
>>> df
                                   molecule  data_value
0       Cc1sc2c(c1-c1ccccc1)COCc1nnc(C)n1-2        4.12
1            Cc1nnc2n1-c1scc(Br)c1CO[C@H]2C        2.07
2  Cc1nnc2n1-c1cccc(S(=O)(=O)c3ccccc3)c1COC2        4.01
3  Cc1nnc2n1-c1cccc(C3=CCCCc4ccccc43)c1COC2        2.98
4  Cc1nnc2n1-c1sc(-c3cn[nH]c3)c(Cc3ccccc3)c1COC2        2.18
5  Cc1nnc2n1-c1ccc(C3CCOC3)c(Cc3ccccc3)c1COC2 (stereo not drawn)        3.73
6      Cc1sc2c(c1COC(C)(C)C)COCc1nnc(C)n1-2        3.70

Find the measured log10 IC50 of Cc1sc2c(c1C1=CCCc3cc(F)ccc31)COCc1nnc(C)n1-2 with recombinant BRD4 BD1 (Homo sapiens) as test system.
2.30

###

biological target: recombinant BRD4 BD1 (Homo sapiens, UniProt O60885); construct: recombinant BRD4 BD1 and BRD4 BD2 proteins; assay: Competitive fluorescence-polarization (FP) binding assay, BRD4 BD1; settings: FP competitive binding; protein 10 nM, probe 1.5 nM; read-out: IC50 (nM) BRD4 BD1
Measured IC50 values are reported for all entries that follow.
Report as a plain number; the unit nM is understood.

>>> print(df.to_string())
                                   molecule  value_units  data_value
0  Cc1nnc2n1-c1ccc(C3=COCC3)c(Cc3ccccc3)c1COC2           nM        1320

Note down IC50 recorded for Cc1nnc2n1-c1sc(-c3ccc(N)nc3)c(Cc3ccccc3)c1COC2
294

Note down IC50 recorded for Cc1sc2c(c1Cn1ccc3ccccc31)COCc1nnc(C)n1-2
283

###

molecular target: recombinant BRD4 BD2 (Homo sapiens, UniProt O60885); construct: recombinant BRD4 BD1 and BRD4 BD2 proteins; assay: Competitive fluorescence-polarization (FP) binding assay, BRD4 BD2; details: protein 6 nM, probe 1.5 nM
In plain terms, low IC50, meaning strictly below 300 nM, gives condition met, and everything else gives condition not met.

>>> df
                                   molecule                             target_system        label_value
0  Cc1sc2c(c1Br)CN(C(=O)OCc1ccccc1)[C@@H](C)c1nnc(C)n1-2  recombinant BRD4 BD2 (Homo sapiens, UniProt O60885)  condition not met
1  COC(=O)C[C@@H]1NCc2c(sc(C)c2Cc2ccccc2)-n2c(C)nnc21  recombinant BRD4 BD2 (Homo sapiens, UniProt O60885)  condition not met
2     Cc1nnc2n1-c1cccc(C(=O)c3ccccc3)c1COC2  recombinant BRD4 BD2 (Homo sapiens, UniProt O60885)  condition not met
3  Cc1sc2c(c1Cc1ccccc1)CN(CC1CC1)[C@@H](C)c1nnc(C)n1-2  recombinant BRD4 BD2 (Homo sapiens, UniProt O60885)  condition not met
4         Cc1nnc2n1-c1cccc(Sc3ccccc3)c1COC2  recombinant BRD4 BD2 (Homo sapiens, UniProt O60885)  condition not met
5  Cc1sc2c(c1Cc1ccccc1)CN[C@H](C)c1nnc(C)n1-2  recombinant BRD4 BD2 (Homo sapiens, UniProt O60885)  condition not met
6  Cc1sc2c(c1C1CCCc3ccccc31)COCc1nnc(C)n1-2 (centres unmarked)  recombinant BRD4 BD2 (Homo sapiens, UniProt O60885)      condition met
7  Cc1sc2c(c1Cc1ccccc1)CN(C1CCC1)[C@@H](C)c1nnc(C)n1-2  recombinant BRD4 BD2 (Homo sapiens, UniProt O60885)  condition not met
8  Cc1sc2c(c1C(C)c1ccccc1)COCc1nnc(C)n1-2 (centres unmarked)  recombinant BRD4 BD2 (Homo sapiens, UniProt O60885)  condition not met
9  Cc1nnc2n1-c1cccc(C(C)c3ccccc3)c1COC2 (centres unmarked)  recombinant BRD4 BD2 (Homo sapiens, UniProt O60885)      condition met

# TODO verify IC50 < 300 nM strictly for this molecule: Cc1sc2c(c1Cc1ccccc1)CN(S(=O)(=O)CCc1ccccc1)[C@@H](C)c1nnc(C)n1-2
condition not met

# TODO verify IC50 < 300 nM strictly for this molecule: Cc1sc2c(c1Cc1cccc(Cl)c1)COCc1nnc(C)n1-2
condition met

# TODO verify IC50 < 300 nM strictly for this molecule: Cc1sc2c(c1Cc1ccccc1)CN(C(=O)OCc1ccccc1)[C@H](C)c1nnc(C)n1-2
condition not met

# TODO verify IC50 < 300 nM strictly for this molecule: Cc1nnc2n1-c1cccc(S(=O)(=O)c3ccccc3)c1COC2
condition not met

# TODO verify IC50 < 300 nM strictly for this molecule: C=C(c1ccccc1)c1c(C)sc2c1COCc1nnc(C)n1-2
condition not met

# TODO verify IC50 < 300 nM strictly for this molecule: Cc1nnc2n1-c1cccc([S+]([O-])c3ccccc3)c1COC2 (centres unmarked)
condition not met

# TODO verify IC50 < 300 nM strictly for this molecule: Cc1nnc2n1-c1cccc(C3=CCc4ccccc43)c1COC2
condition met

# TODO verify IC50 < 300 nM strictly for this molecule: Cc1sc2c(c1Cc1ccccc1Cl)COCc1nnc(C)n1-2
condition not met

# TODO verify IC50 < 300 nM strictly for this molecule: Cc1sc2c(c1-c1ccnc3ccccc13)COCc1nnc(C)n1-2
condition not met

# TODO verify IC50 < 300 nM strictly for this molecule: Cc1sc2c(c1Cc1ccccc1)COC(CC(=O)OC(C)(C)C)c1nnc(C)n1-2 (centres unmarked)
condition not met

# TODO verify IC50 < 300 nM strictly for this molecule: C=C(c1ccccc1)c1cccc2c1COCc1nnc(C)n1-2
condition not met

# TODO verify IC50 < 300 nM strictly for this molecule: CCC(=O)N1Cc2c(sc(C)c2Cc2ccccc2)-n2c(C)nnc2[C@@H]1C
condition not met

# TODO verify IC50 < 300 nM strictly for this molecule: Cc1sc2c(c1Cc1ccc(Cl)cc1)COCc1nnc(C)n1-2
condition met

# TODO verify IC50 < 300 nM strictly for this molecule: Cc1nnc2n1-c1sc(C#N)c(Cc3ccccc3)c1COC2
condition not met

# TODO verify IC50 < 300 nM strictly for this molecule: Cc1sc2c(c1C1=CCCc3ccccc31)COCc1nnc(C)n1-2
condition met
